B1: EEHEE_rd3_1049 (parent)
chain: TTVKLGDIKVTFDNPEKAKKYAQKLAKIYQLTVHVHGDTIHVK

# Variants of: B1
# procedure details: folding stability dG (cDNA display proteolysis); higher = more stable
# condition info: PBS, room temperature
Quick rule for you: folding stability dG at 1 kcal/mol or higher means Criterion met, lower means Criterion not met.

# variant label, answer label
records = [
    ("A18K", "Criterion not met"),
    ("L25C", "Criterion met"),
]

INPUT: Is it the case that "K24H" has folding stability dG reaching or exceeding 1 kcal/mol?
OUTPUT: Criterion met

INPUT: Form field: folding stability dG at least 1 kcal/mol? Entry: "Y29G"
OUTPUT: Criterion not met

INPUT: Item "Y21F" with folding stability dG of 1 kcal/mol or above?
OUTPUT: Criterion met

INPUT: Entry "H41A" : is its folding stability dG no less than 1 kcal/mol?
OUTPUT: Criterion met

INPUT: Is folding stability dG for "G37K" at or above 1 kcal/mol?
OUTPUT: Criterion met

INPUT: Given the entry "L31W" , answer whether its folding stability dG meets or surpasses 1 kcal/mol.
OUTPUT: Criterion met
